IC50 values by entry
testSystem: Large T antigen (Simian virus 40);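 further: Confirmatory-stage PubChem screen for compounds that inhibit SV40 T antigen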
Sequence (P03070 whole entry): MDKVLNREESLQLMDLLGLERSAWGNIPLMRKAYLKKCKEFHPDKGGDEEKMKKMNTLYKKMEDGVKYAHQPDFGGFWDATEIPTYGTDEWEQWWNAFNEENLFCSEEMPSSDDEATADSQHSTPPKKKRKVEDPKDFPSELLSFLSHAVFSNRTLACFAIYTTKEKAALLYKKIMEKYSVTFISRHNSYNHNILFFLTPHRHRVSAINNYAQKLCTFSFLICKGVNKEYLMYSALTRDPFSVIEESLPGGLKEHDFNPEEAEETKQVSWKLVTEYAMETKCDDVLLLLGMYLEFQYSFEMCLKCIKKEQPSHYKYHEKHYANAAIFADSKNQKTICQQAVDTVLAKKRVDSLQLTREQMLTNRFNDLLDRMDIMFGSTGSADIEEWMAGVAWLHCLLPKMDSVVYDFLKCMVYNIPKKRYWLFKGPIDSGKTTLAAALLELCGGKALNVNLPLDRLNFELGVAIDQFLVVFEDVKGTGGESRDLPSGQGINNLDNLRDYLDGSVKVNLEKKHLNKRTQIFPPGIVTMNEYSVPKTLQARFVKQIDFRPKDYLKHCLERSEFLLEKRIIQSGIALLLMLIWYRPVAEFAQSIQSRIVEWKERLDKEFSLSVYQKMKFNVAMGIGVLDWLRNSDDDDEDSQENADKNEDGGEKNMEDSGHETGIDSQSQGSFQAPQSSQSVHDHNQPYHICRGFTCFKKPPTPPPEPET
Type: functional, Betapolyomavirus macacae
Activity calls are given as the source filed them.

inputSmiles | recordedMeasurement
O=C1ON=C(c2ccccc2)/C1=C/c1ccc(O)c(O)c1 | 5.22 µM (active)
CC(C)(C)OC(=O)N/N=C/c1ccc(N2CCOCC2)s1 | 13.2 µM (active)

Problem: I would be grateful if you could share the reported IC50 for "O=C(O)Cc1c[nH]c2cccc(O)c12" .
Result: 23.1 µM (active)

Problem: I would be grateful if you could share the reported IC50 for "CCN(CC)c1ccc(NC(=O)c2cccnc2)c(C)c1" .
Result: 77.3 µM (active)

Problem: I would be grateful if you could share the reported IC50 for "Cc1ccc2c(c1)N/C(=C\C(=O)CC(C)C)C(=O)O2" .
Result: 7.15 µM (active)

Problem: I would be grateful if you could share the reported IC50 for "COc1ccc(/N=C/c2c[nH]nc2O)cc1" .
Result: 17.9 µM (active)

Problem: I would be grateful if you could share the reported IC50 for "CCN(CC)c1ccc(N/C=C2\C(=O)NC(=O)N(c3cc(OC)ccc3OC)C2=O)cc1" .
Result: 19.8 µM (active)
